target: Gonadotropin-releasing hormone receptor (Homo sapiens, UniProt P30968); assay: Binding affinity was determined towards human gonadotropin-releasing hormone receptor
Catalogue of pKi readings, one per entry.
Value format note: pKi is -log10 of concentration (mol/L); just state the number.

Look over these answered cases.
[[record]]
molecule = "COc1cccc(-c2c(C)n(Cc3c(F)cccc3F)c(=O)n(CCN3CCC[C@H]3Cc3ccccn3)c2=O)c1"
measured_number = 6.89

[[record]]
molecule = "Cc1c(-c2cccc(OC(F)(F)F)c2)c(=O)n(CCN(C)CCc2ccccn2)c(=O)n1Cc1c(F)cccc1F"
measured_number = 5.32

[[record]]
molecule = "Cc1c(-c2ccccc2)c(=O)n(CCN(C)CCc2ccccn2)c(=O)n1Cc1c(F)cccc1F"
measured_number = 6.40

[[record]]
molecule = "Cc1c(-c2ccc3c(c2)OCCO3)c(=O)n(CCN(C)CCc2ccccn2)c(=O)n1Cc1c(F)cccc1F"
measured_number = 7.62


Given the molecule `Cc1c(-c2ccc(Oc3ccccc3)cc2)c(=O)n(CCN(C)CCc2ccccn2)c(=O)n1Cc1c(F)cccc1F` and test system Gonadotropin-releasing hormone receptor (Homo sapiens, UniProt P30968), the measured pKi is 7.52

The observed pKi for `Cc1c(-c2cccc(O)c2)c(=O)n(CCN(C)CCc2ccccn2)c(=O)n1Cc1c(F)cccc1F` when tested with Gonadotropin-releasing hormone receptor (Homo sapiens, UniProt P30968) stands at 6.32

###

target: Gonadotropin-releasing hormone receptor (Homo sapiens); test: Binding affinity was determined towards human Gonadotropin-releasing hormone receptor
Observation type: pKi
Bear in mind: pKi is minus log10 of a mol/L concentration; give just that figure.

For the compound `COc1cccc(-c2c(C)n(Cc3c(F)cccc3F)c(=O)n(CCNCc3ccccc3)c2=O)c1` , the measured pKi on Gonadotropin-releasing hormone receptor (Homo sapiens) was 6.62

###

Molecular target: Gonadotropin-releasing hormone receptor (Homo sapiens)
Sequence (P30968 whole entry): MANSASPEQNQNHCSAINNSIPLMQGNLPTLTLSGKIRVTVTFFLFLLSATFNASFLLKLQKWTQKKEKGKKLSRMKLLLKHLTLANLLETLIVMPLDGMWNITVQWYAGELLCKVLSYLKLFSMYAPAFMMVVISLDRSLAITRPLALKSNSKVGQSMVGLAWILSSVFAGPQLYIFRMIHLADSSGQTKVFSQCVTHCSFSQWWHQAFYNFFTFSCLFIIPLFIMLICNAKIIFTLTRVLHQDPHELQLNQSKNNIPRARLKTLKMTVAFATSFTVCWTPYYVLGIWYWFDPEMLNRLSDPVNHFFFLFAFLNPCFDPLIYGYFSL
Assay: Binding affinity was determined towards human gonadotropin-releasing hormone receptor
pKi: −log10 of the molar value.
Each entry gets NO if its pKi stays under 6, and YES if its pKi is 6 or above.

Below, 2 compounds whose answers are already recorded.
[[record]]
compound = "COc1cccc(-c2c(C)n(Cc3c(F)cccc3F)c(=O)n(CCN3CCC[C@@H]3Cc3ccccn3)c2=O)c1"
group = "NO"

[[record]]
compound = "COc1ccc(-c2c(C)n(Cc3c(F)cccc3F)c(=O)n(CCN(C)CCc3ccccn3)c2=O)cc1"
group = "YES"


QUERY: Dear colleague, could you confirm whether `Cc1c(-c2ccc3c(c2)OCO3)c(=O)n(CCN(C)CCc2ccccn2)c(=O)n1Cc1c(F)cccc1F` has pKi at or above 6?
RESULT: YES

QUERY: Please check the record `CCc1cccc(-c2c(C)n(Cc3c(F)cccc3F)c(=O)n(CCN(C)CCc3ccccn3)c2=O)c1` and state if its pKi is at or above 6.
RESULT: YES

QUERY: Can COc1cccc(-c2c(C)n(Cc3c(F)cccc3F)c(=O)n(CCN3CCCC3c3ccccn3)c2=O)c1 (centres undefined) be said to have pKi at or above 6?
RESULT: YES

QUERY: For this compound, is measured pKi 6 or higher? `CCc1c(-c2cccc(OC)c2)c(=O)n(CCN(C)CCc2ccccn2)c(=O)n1Cc1c(F)cccc1F`
RESULT: NO

QUERY: Is the recorded value of pKi equal to or greater than 6 for this compound? `COc1cccc(-c2cn(Cc3c(F)cccc3F)c(=O)n(CCN(C)CCc3ccccn3)c2=O)c1`
RESULT: NO

QUERY: Decide: pKi of `COc1cccc(-c2c(C)n(Cc3c(F)cccc3F)c(=O)n(CCNCCc3c[nH]cn3)c2=O)c1` >= 6?
RESULT: NO
